Test system: human peripheral blood mononuclear cells (PBMCs)
Test: Cytokine production in isolated human PBMCs
Type: cell-based
Settings: Homo sapiens, PBMC; analyte IL-10; read-out: EC50, IL-10 production
A collection of molecules and their measured EC50
EXPERIMENTAL ENDPOINT: EC50 (µM)

- CC(C)Cn1cnc2c(N)nc3ccccc3c21 [Imiquimod, imiquimod, reference compound]: 17
- CCCN(CCC)C(=O)C1=Cc2ccc(-c3ccc(C(=O)N4CCCC4)cc3)cc2N=C(N)C1: 0.12
